The entries below come with measured IC50 of neutralisation of SARS-CoV-2 pseudovirus (HeLa-hACE2 cells) values attached.
# Measured On: SARS-CoV-2 S-2P protein (SARS-CoV-2, ancestral (Wuhan-Hu-1) …, UniProt P0DTC2, stabilised)
# Experiment Notes: cell-based or functional assay
Just the number in µg/mL, nothing appended.

input: Query IC50 of neutralisation of SARS-CoV-2 pseudovirus (HeLa-hACE2 cells) for eCC65.1-5 (antibody, V domains shown) VH: VQLVQSGAEVKKPGASVKVSCKATGYTFTSQYMHWVRQAPGQGLEWMGIIDPSGGGTSYAQKFRDRVSMTRDTPTSTVYMELRSLRSEDTAVYYCASIWFENPSWRDYWGQGTLVTVSS VL: VMTQSPGTLSLSPGERATLSCRASQTVNKNYLAWYQQKPGQAPRLLIYGASSRATGIPDRFSGSGSGTDFTLTISRLEPEDFAVYYCQQYGSSPPLFTFGPGTKLEIK
output: 1.63

input: Query IC50 of neutralisation of SARS-CoV-2 pseudovirus (HeLa-hACE2 cells) for eCC65.1-13 (antibody, V domains shown) VH: EVQLVQSGAEVKKPGASVKVSCKASGYTFTSQYMHWVRQAPGQGLEWMGIIDPSGGGTSYAQKFRDRVSMTRDTPTSTVYMELRSLRSEDTAVYYCASLWFENPSWRDYWGQGTLVTVSS VL: VMTQSPGTLSLSPGERATLSCRASQTVNKNYLAWYQQKPGQAPRLLIYGASSRATGIPDRFSGSGSGTDFTLTISRLEPEDFAVYYCQQYGASPPLFTFGPGTKLEIK
output: 2.41
